- Substrate: tributyrin
- condition details: pH 7; 25 °C
assay readout: kcat
Your answer should be a number followed by the unit of measure.

# input State, in one line, measured kcat of unnamed (protein) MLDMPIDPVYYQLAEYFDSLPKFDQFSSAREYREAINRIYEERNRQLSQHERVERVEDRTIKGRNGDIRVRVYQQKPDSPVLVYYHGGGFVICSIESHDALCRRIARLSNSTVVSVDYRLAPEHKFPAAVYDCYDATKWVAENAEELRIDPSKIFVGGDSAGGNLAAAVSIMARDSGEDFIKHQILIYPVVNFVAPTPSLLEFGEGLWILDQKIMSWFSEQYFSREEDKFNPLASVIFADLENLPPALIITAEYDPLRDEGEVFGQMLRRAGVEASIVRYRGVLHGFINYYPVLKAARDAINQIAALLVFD
# output 95 s⁻¹

meta.source: the PETadex activity labels (doi:10.1016/j.bbalip.2005.11.003)
